System: Klebsiella pneumoniae
Protocol: Antibacterial activity against Klebsiella pneumoniae HK14368/08 clinical isolate after 48 hrs by microdilution assay
Assay type: functional
Experimental Context: HK14368/08, 48 h
Measurement Kind: MIC95

Write MIC95 of Cc1ccc(C2=C(c3cccc(C(F)(F)F)c3)C(=O)OC2)cc1 ; system used: Klebsiella pneumoniae
> 500 µM

Using Klebsiella pneumoniae as the test system, report measured MIC95 of O=C1OCC(c2ccc(C(F)(F)F)cc2)=C1c1ccc(Br)cc1 .
> 500 µM

Provide the reported MIC95 (system: Klebsiella pneumoniae) for Cc1ccc(C2=C(c3ccc(F)cc3)C(=O)OC2)cc1
> 500 µM

Give reported MIC95 for CC(=O)OCC1(COC(C)=O)OC(=O)C(c2ccc(Br)cc2)=C1c1ccc(C)cc1 (Klebsiella pneumoniae)
> 125 µM

Report MIC95 under test system Klebsiella pneumoniae for Cc1ccc(C2=C(c3ccc(Br)cc3)C(=O)OC2)cc1 .
> 1000 µM

# lookup: Klebsiella pneumoniae MIC95, key = Cc1ccc(C2=C(c3cccc(Cl)c3)C(=O)OC2)cc1
> 500 µM

Provide the reported MIC95 (system: Klebsiella pneumoniae) for O=C1OCC(c2ccc(O)c(O)c2)=C1c1ccc(O)cc1
> 500 µM

Fill in MIC95 for COc1ccc(C2=C(c3ccc4c(c3)OCO4)COC2=O)cc1 tested with Klebsiella pneumoniae.
> 500 µM

Consider the compound COc1ccc(C2=C(c3cccc(Cl)c3Cl)C(=O)OC2(CO)CO)cc1 tested on Klebsiella pneumoniae; state its MIC95.
> 500 µM

Provide Klebsiella pneumoniae MIC95 reading for COc1ccc(C2=C(c3ccc(S(C)(=O)=O)cc3)COC2=O)cc1 .
> 500 µM

Name the recorded MIC95 of COc1ccc(C2=C(c3ccc(OC)c(OC)c3)C(CO)(CO)OC2=O)cc1 , assay system Klebsiella pneumoniae.
> 500 µM

Sourced from ChEMBL document CHEMBL4251593
